Biological target: recombinant DYRK1A kinase (Homo sapiens (Human), UniProt Q13627)
Assay: DYRK1A kinase assay (Ser/Thr 18 peptide Z-lyte FRET)
Details: DYRK1A kinase activity, Z-lyte Ser/Thr 18 peptide, 15 μM ATP; method text calls the value IC50; read-out: EC50 (the source's name)
Entries annotated with measured log10 IC50
test.readout: log10 IC50 (log10 of the value in nM)

smiles.repr | reported.value
COCC[C@@H](C)Nc1nc(OC)c2c(-c3cnc4nccn4c3)ccn2n1 | 0.75
COCCO[C@H]1CC[C@H](Nc2nc(OC)c3c(-c4ccc5nccn5c4)ccn3n2)CC1 | 0.72
COc1nc(N[C@@H]2CN(C3COC3)C[C@@H]2F)nn2ccc(-c3cnc4nccn4c3)c12 | 0.46
COc1nc(N[C@H]2CC[C@@](C)(O)CC2)nn2ccc(-c3ccc4nnn(C)c4c3)c12 | 1.05
COc1nc(N[C@H]2C[C@](C)(C(=O)N(C)C)C2)nn2ccc(-c3ccc4ncccc4c3)c12 | 0.26
COc1nc(N[C@H]2CCN(C(C)=O)C[C@H]2F)nn2ccc(-c3ccc4nnn(CC(F)F)c4c3)c12 | -1.00
COc1nc(N[C@@H]2CN(C(C)=O)C[C@@H]2F)nn2ccc(-c3ccc4nccnc4c3)c12 | 0.34
COc1nc(N[C@H]2C[C@](C)(N)C2)nn2ccc(-c3ccn4nccc4c3)c12 | 0.61
COc1nc(N[C@@H]2CCN(C3COC3)C[C@@H]2F)nn2ccc(-c3cnc4nccn4c3)c12 | 0.36
COc1nc(NC2CCC3(CC2)COC3)nn2ccc(-c3ccc4nnn(C)c4c3)c12 | 0.62
COc1nc(N[C@@H]2COC[C@H]2O)nn2ccc(-c3ccc4nccnc4c3)c12 | 0.63
COc1nc(N[C@H]2CC[C@H](NC(C)=O)CC2)nn2ccc(-c3ccc4nccnc4c3)c12 | 0.26
COc1nc(N[C@H]2C[C@@](C)(C(=O)N(C)C)C2)nn2ccc(-c3ccc4nnn(C)c4c3)c12 | 0.82
COc1nc(NC2CCC3(CC2)COC3)nn2ccc(-c3ccn4nccc4c3)c12 | 0.79
COc1nc(N[C@H]2CCN(CCO)C[C@H]2F)nn2ccc(-c3ccc4nnn(CC(F)F)c4c3)c12 | 0.15
COc1nc(NCC(C)(C)C#N)nn2ccc(-c3ccc4nnn(CC(F)F)c4c3)c12 | 0.11
COc1nc(N[C@H]2C[C@]3(CCN3C(C)=O)C2)nn2ccc(-c3ccc4nccnc4c3)c12 | 0.15
COc1nc(N[C@H]2C[C@@](C)(N)C2)nn2ccc(-c3ccn4nccc4c3)c12 | 0.91
COc1nc(NC2CCC3(CC2)CC3)nn2ccc(-c3cnc4nccn4c3)c12 | 0.26
COc1nc(N[C@H]2CN(C3COC3)C[C@H]2F)nn2ccc(-c3ccc4nccnc4c3)c12 | 0.94
CNC(=O)[C@]1(C)C[C@@H](Nc2nc(OC)c3c(-c4ccc5nnn(C)c5c4)ccn3n2)C1 | 0.18
COc1nc(N[C@H]2C[C@@](C)(O)C2)nn2ccc(-c3ccc4nnn(CC(F)F)c4c3)c12 | -0.05
COc1nc(N[C@H]2CC[C@@](O)(C(F)(F)F)CC2)nn2ccc(-c3ccc4nccnc4c3)c12 | 0.82
COc1nc(N[C@@H]2CCN(C(C)=O)CC2(F)F)nn2ccc(-c3ccc4nnn(CCF)c4c3)c12 | 0.20
COc1nc(N[C@H]2CC[C@](C)(O)CC2)nn2ccc(-c3ccc4ncnn4c3)c12 | 0.34
COc1nc(N[C@H]2C[C@@](C)(N(C)C)C2)nn2ccc(-c3ccc4nnn(C)c4c3)c12 | 0.54
COc1nc(N[C@H]2CC[C@](C)(O)CC2)nn2ccc(-c3cc4ncccc4[nH]3)c12 | 1.52
COc1nc(N[C@H]2CC[C@@H](NC(C)=O)CC2)nn2ccc(-c3ccn4nccc4c3)c12 | 1.24
COc1nc(N[C@H]2CCN(C(C)=O)C[C@H]2F)nn2ccc(-c3ccc4nnn(CCF)c4c3)c12 | 0.20
COc1nc(NC2CCC3(CC2)COC3)nn2ccc(-c3cnc4nccn4c3)c12 | -0.22
C[C@]1(O)CC[C@H](Nc2nc(OC3COC3)c3c(-c4ccc5ncccc5c4)ccn3n2)CC1 | 0.65

----------
Entries annotated with measured pIC50
Target: recombinant DYRK1A kinase (Homo sapiens (Human))
Assay: DYRK1A kinase assay (Ser/Thr 18 peptide Z-lyte FRET)
Format: biochemical
Details: DYRK1A kinase activity, Z-lyte Ser/Thr 18 peptide, 15 μM ATP; method text calls the value IC50; read-out: EC50 (the source's name)
pIC50: −log10 of the molar value.
test.readout: pIC50

smiles.repr | reported.value
[2H]C([2H])([2H])O[C@H]1CC[C@@H](Nc2nc(OC)c3c(-c4cnc5nccn5c4)ccn3n2)CC1 | 9.15
COc1nc(N[C@H]2CC[C@](C)(O)CC2)nn2ccc(-c3cc4ccncc4[nH]3)c12 | 6.63
COc1nc(N[C@@H]2CCN(C(C)=O)CC2(F)F)nn2ccc(-c3cc(F)c4nnn(CC(F)F)c4c3)c12 | 8.72
CCN1CC[C@H](Nc2nc(OC)c3c(-c4ccc5nnn(CC(F)F)c5c4)ccn3n2)[C@H](F)C1 | 8.64
CCn1nnc2ccc(-c3ccn4nc(N[C@H]5CCN(C6COC6)C[C@H]5F)nc(OC)c34)cc21 | 8.47
c1cnc2cc(-c3ccn4nc(NC5CCC6(CC5)COC6)nc(OC5COC5)c34)ccc2n1 | 8.48
COc1nc(N[C@H]2CCN(C(C)=O)C[C@H]2F)nn2cc(F)c(-c3ccc4nnn(CC(F)F)c4c3)c12 | 8.72

----------
Entries annotated with measured EC50
System: Tau phosphorylation at Thr212 (pThr212) in HEK293T cells transfected with DYRK1A and MAPT
Experiment: Tau phosphorylation phosphoTau (Thr212) AlphaLISA assay in HEK293T cells transfected with DYRK1A and MAPT
Type: cell-based
Details: HEK-293T, HEK293T cells transiently transfected with human DYRK1A and MAPT, compound treatment 18-24 hours, read-out: pTau (Thr212) EC50

smiles.repr | unit.of.measurement | EC50
COc1nc(N[C@@H]2CN(C(C)=O)C[C@@H]2F)nn2ccc(-c3ccc4nccnc4c3)c12 | nM | 39.4
COc1nc(N[C@H]2C[C@](C)(O)C2)nn2ccc(-c3ccc4nccn4c3)c12 | nM | 48.2
COc1nc(N[C@H]2CC[C@](C)(O)CC2)nn2ccc(-c3ccn4nccc4c3)c12 | nM | 107
COc1nc(N[C@H]2C[C@](C)(NC(C)=O)C2)nn2ccc(-c3ccc4ncnn4c3)c12 | nM | 18.1
COc1nc(N[C@H]2CC[C@](C)(O)CC2)nn2ccc(-c3ccc4nnn(C)c4c3)c12 | nM | 197
CNC(=O)[C@]1(C)C[C@@H](Nc2nc(OC)c3c(-c4ccc5nnn(C)c5c4)ccn3n2)C1 | nM | 19.7
COc1nc(N[C@H]2C[C@](C)(O)C2)nn2ccc(-c3ccc4nnn(C)c4c3)c12 | nM | 130
CC[C@]1(O)CC[C@H](Nc2nc(OC)c3c(-c4cnc5nccn5c4)ccn3n2)CC1 | nM | 8.9

----------
Biological target: recombinant DYRK1A kinase (Homo sapiens (Human))
Experiment: DYRK1A kinase assay (Ser/Thr 18 peptide Z-lyte FRET)
Conditions: DYRK1A kinase activity, Z-lyte Ser/Thr 18 peptide, 15 μM ATP; method text calls the value IC50; read-out: EC50 (the source's name)
Entries annotated with measured IC50

compound | IC50 [nM]
COc1nc(NC2CC3CC3C2)nn2ccc(-c3cnc4nccn4c3)c12 (stereo not shown) | 2.5
COc1nc(N[C@H]2CC[C@@H](OCCO)CC2)nn2ccc(-c3ccn4nccc4c3)c12 | 5.5
COc1nc(N[C@@H]2CC[C@@H]2OC)nn2ccc(-c3cnc4nccn4c3)c12 | 19.8
COc1nc(NCC(C)(C)F)nn2ccc(-c3cnc4nccn4c3)c12 | 2.1

----------
Biological target: recombinant DYRK1A kinase (Homo sapiens (Human), UniProt Q13627)
Test: DYRK1A kinase assay (Ser/Thr 18 peptide Z-lyte FRET)
Conditions: DYRK1A kinase activity, Z-lyte Ser/Thr 18 peptide, 15 μM ATP; method text calls the value IC50; read-out: EC50 (the source's name)
Entries annotated with measured IC50
test.readout: IC50 (nM)

compound | test.readout | unit.of.measurement | reported.value
COc1nc(N[C@H]2CCN(C(C)=O)C[C@H]2F)nn2ccc(-c3ccc4nnn(C(C)C)c4c3)c12 [Compound 686] | IC50 | nM | 3.4
COc1nc(NC2CCN(CC(F)(F)F)CC2)nn2ccc(-c3ccc4nccnc4c3)c12 [Compound 363] | IC50 | nM | 40.1
COc1nc(N[C@@H]2CCN(C(C)=O)C[C@@H]2F)nn2ccc(-c3cc(F)c4nc(C)n(CC(F)F)c4c3)c12 [Compound 520] | IC50 | nM | 3
COc1nc(N[C@H]2CCN(C)C[C@H]2F)nn2ccc(-c3ccc4nccnc4c3)c12 [Compound 368] | IC50 | nM | 4
COc1nc(N[C@H]2CC[C@@](C)(O)CC2)nn2ccc(-c3cnc4nc(C)n(CC(F)F)c4c3)c12 [Compound 1] | IC50 | nM | 22.4
COc1nc(NC2CCC(=O)N(C)C2)nn2ccc(-c3ccc4nnn(CC(F)F)c4c3)c12 (stereo not shown) [Compound 793] | IC50 | nM | 1.3
COc1nc(N[C@@H]2CCN(C3COC3)CC2(F)F)nn2ccc(-c3ccc4nnn(C)c4c3)c12 [Compound 628] | IC50 | nM | 6.3
